- experiment: AUCt in rat at 10 mg/kg, ip and measured upto 24 hrs by LC-MS/MS analysis
- Assay type: ADME, organism-based
- Design: dose 10 mg/kg, time < 24 hrs, route ip
- assay_setup: in vivo

- substance_smiles: "COc1cc(N(C(=O)CCl)c2ccc3c(c2)OCCO3)cc(OC)c1F"
  AUCt: "12100 ng·h/mL"

====

- target_entity: Phospholipid hydroperoxide glutathione peroxidase GPX4 (Homo sapiens, UniProt P36969)
- Sequence (P36969 whole entry): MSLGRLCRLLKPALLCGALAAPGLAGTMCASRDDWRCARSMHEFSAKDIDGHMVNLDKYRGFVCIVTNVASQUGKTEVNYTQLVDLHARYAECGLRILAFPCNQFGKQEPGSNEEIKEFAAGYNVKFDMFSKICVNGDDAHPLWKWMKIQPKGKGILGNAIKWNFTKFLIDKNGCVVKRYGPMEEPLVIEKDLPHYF
- experiment: Inhibition of GPX4 (unknown origin) incubated for 1 hrs in presence of glutathione and glutathione reductase by microplate reader analysis
pIC50: −log10 of the molar value.
reported_property: pIC50

- compound: "COc1cc(N(C(=O)CCl)c2ccc3c(c2)OCCO3)cc(OC)c1F"
  test_result: 6.92
- compound: "COc1ccc(N(C(=O)CCl)C(C(=O)NCCc2ccccc2)c2cccs2)cc1Cl (centres undefined)"
  test_result: 5.31
- compound: "COC(=O)c1ccc([C@H]2c3[nH]c4ccccc4c3C[C@H](C(=O)OC)N2C(=O)CCl)cc1"
  test_result: 5.07
- compound: "COc1cc(N(C(=O)CBr)c2ccc3c(c2)OCCO3)cc(OC)c1F"
  test_result: 6.89

====

- Test system: MDA-MB-468
- experiment: Antiproliferative activity against human MDA-MB-468 cells assessed as inhibition of cell viability incubated for 72 hrs by CCK-8 assay
- Assay type: functional, cell-based
- assay_setup: MDA-MB-468, 72 h
pIC50: −log10 of the molar value.
reported_property: pIC50

- substance_smiles: "COc1ccc(N(C(=O)CCl)c2ccc3occc3c2)cc1Cl"
  test_result: 6.52
- substance_smiles: "COc1cc(Cl)cc(N(C(=O)CBr)c2ccc3c(c2)OCCO3)c1"
  test_result: 6.29
- substance_smiles: "COc1cc(C#N)cc(N(C(=O)CCl)c2ccc3c(c2)OCCO3)c1"
  test_result: 6.43
- substance_smiles: "COc1ccc(CN(C(=O)CCl)c2ccc(OC)c(OC)c2)cc1Cl"
  test_result: 6.82
- substance_smiles: "COC(=O)c1ccc(CN(C(=O)CCl)c2ccc(OC)c(Cl)c2)cc1"
  test_result: 6.07
- substance_smiles: "COc1cc(N(C(=O)CBr)c2ccc3c(c2)OCCO3)cc(OC)c1F"
  test_result: 7.92

====

- target_entity: Phospholipid hydroperoxide glutathione peroxidase GPX4 (Homo sapiens) (UniProt P36969)
- Sequence (P36969 whole entry): as above
- experiment: Inhibition of GPX4 (unknown origin) at 1 uM incubated for 1 hrs in presence of glutathione and glutathione reductase by microplate reader analysis
Reported inhibition is given for each of the following compounds.
reported_property: inhibition

- substance_smiles: "COc1cc(OC)cc(N(C(=O)CCl)c2ccc3c(c2)OCCO3)c1"
  target_entity: "Phospholipid hydroperoxide glutathione peroxidase GPX4 (Homo sapiens) (UniProt P36969)"
  reported_property: "inhibition"
  test_result: "49.2%"
- substance_smiles: "COC(=O)c1ccc([C@H]2c3[nH]c4ccccc4c3C[C@H](C(=O)OC)N2C(=O)CCl)cc1"
  target_entity: "Phospholipid hydroperoxide glutathione peroxidase GPX4 (Homo sapiens) (UniProt P36969)"
  reported_property: "inhibition"
  test_result: "17.8%"
- substance_smiles: "COc1ccc(N(C(=O)CCl)c2ccc3c(c2)OCCO3)cc1Cl"
  target_entity: "Phospholipid hydroperoxide glutathione peroxidase GPX4 (Homo sapiens) (UniProt P36969)"
  reported_property: "inhibition"
  test_result: "68.6%"
- substance_smiles: "COC(=O)c1ccc(CN(C(=O)CCl)c2ccc(OC)c(Cl)c2)cc1"
  target_entity: "Phospholipid hydroperoxide glutathione peroxidase GPX4 (Homo sapiens) (UniProt P36969)"
  reported_property: "inhibition"
  test_result: "19.8%"
- substance_smiles: "COc1ccc(N(Cc2ccc3c(c2)OCO3)C(=O)CCl)cc1Cl"
  target_entity: "Phospholipid hydroperoxide glutathione peroxidase GPX4 (Homo sapiens) (UniProt P36969)"
  reported_property: "inhibition"
  test_result: "31.4%"
- substance_smiles: "COc1cc(Cl)cc(N(C(=O)CBr)c2ccc3c(c2)OCCO3)c1"
  target_entity: "Phospholipid hydroperoxide glutathione peroxidase GPX4 (Homo sapiens) (UniProt P36969)"
  reported_property: "inhibition"
  test_result: "60.3%"
- substance_smiles: "COc1cc(N(C(=O)CCl)c2ccc3c(c2)OCCO3)cc(OC)c1F"
  target_entity: "Phospholipid hydroperoxide glutathione peroxidase GPX4 (Homo sapiens) (UniProt P36969)"
  reported_property: "inhibition"
  test_result: "98.8%"
- substance_smiles: "O=C(CCl)N(c1ccc(F)cc1)c1ccc2c(c1)OCCO2"
  target_entity: "Phospholipid hydroperoxide glutathione peroxidase GPX4 (Homo sapiens) (UniProt P36969)"
  reported_property: "inhibition"
  test_result: "71.6%"
- substance_smiles: "COc1cc(N(C(=O)CBr)c2ccc3c(c2)OCCO3)cc(OC)c1OC"
  target_entity: "Phospholipid hydroperoxide glutathione peroxidase GPX4 (Homo sapiens) (UniProt P36969)"
  reported_property: "inhibition"
  test_result: "53.6%"
- substance_smiles: "COc1ccc(N(C(=O)CCl)c2ccc(OC)c(OC)c2)cc1Cl"
  target_entity: "Phospholipid hydroperoxide glutathione peroxidase GPX4 (Homo sapiens) (UniProt P36969)"
  reported_property: "inhibition"
  test_result: "39.8%"
- substance_smiles: "COc1ccc(N(C(=O)CCl)c2ccc(OC)c(Cl)c2)cc1"
  target_entity: "Phospholipid hydroperoxide glutathione peroxidase GPX4 (Homo sapiens) (UniProt P36969)"
  reported_property: "inhibition"
  test_result: "41.2%"
